Data origin, for the record: patent US12428428B2

TARGET UNDER TEST: ER (estrogen receptor) (Homo sapiens (Human))
Sequence (P03372 whole entry): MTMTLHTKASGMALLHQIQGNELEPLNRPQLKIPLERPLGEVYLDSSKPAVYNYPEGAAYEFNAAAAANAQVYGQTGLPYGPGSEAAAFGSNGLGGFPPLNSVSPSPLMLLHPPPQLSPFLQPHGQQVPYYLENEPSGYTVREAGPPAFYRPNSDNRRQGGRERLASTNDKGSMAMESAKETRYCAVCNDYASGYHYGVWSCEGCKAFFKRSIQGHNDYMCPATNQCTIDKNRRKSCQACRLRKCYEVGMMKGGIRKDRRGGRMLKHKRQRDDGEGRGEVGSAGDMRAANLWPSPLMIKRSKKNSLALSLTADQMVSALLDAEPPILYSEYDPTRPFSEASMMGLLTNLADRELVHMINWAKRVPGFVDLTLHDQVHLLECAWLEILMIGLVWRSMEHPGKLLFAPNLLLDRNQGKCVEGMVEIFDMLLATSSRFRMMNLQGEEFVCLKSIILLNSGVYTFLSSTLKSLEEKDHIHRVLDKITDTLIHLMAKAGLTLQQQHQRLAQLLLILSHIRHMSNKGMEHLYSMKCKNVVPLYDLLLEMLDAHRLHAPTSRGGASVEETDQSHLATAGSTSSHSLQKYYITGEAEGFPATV
PROTOCOL SUMMARY: Inhibition of binding of E to ER (MCF-7/ERE-luciferase reporter cells)
Assay type: cell-based
MEASUREMENT CONDITIONS: MCF-7/ERE-luciferase cells, 0.1 nM estradiol, 24 h
Protocol: The compounds of the present disclosure can inhibit the binding of E (estrogen) to ER (estrogen receptor), thereby blocking the binding of the complex of E and ER to ERE (estrogen response element), and consequently the expression of downstream luciferase proteins. The inhibitory effects of the compounds of the present disclosure on the binding of E to ER was tested by using the following method. […]
Provide the recorded IC50 for the entries that follow.
One number for each entry, in nM.

>  <SMI>
C[C@@H]1Cc2cc3c(cc2[C@@H](c2ccc(NC4CN(CCCF)C4)cn2)N1CC(F)(F)F)OCO3

>  <TARGET UNDER TEST>
ER (estrogen receptor) (Homo sapiens (Human))

>  <MEASURE UNIT>
nM

>  <IC50>
0.43

$$$$
>  <SMI>
[2H]C1([2H])Oc2cc3c(cc2O1)[C@@H](c1ccc(N[C@H]2CCN(CCCF)C2)cn1)N(CC(F)(F)CO)[C@H](C)C3

>  <TARGET UNDER TEST>
ER (estrogen receptor) (Homo sapiens (Human))

>  <MEASURE UNIT>
nM

>  <IC50>
1.13

$$$$
>  <SMI>
C[C@@H]1Cc2cc3c(cc2[C@@H](c2c(F)cc(O[C@H]4CCN(CCCF)C4)cc2F)N1CC(F)(F)F)OCO3

>  <TARGET UNDER TEST>
ER (estrogen receptor) (Homo sapiens (Human))

>  <MEASURE UNIT>
nM

>  <IC50>
0.19

$$$$

List IC50 for every entry below, keeping the order given.
1. C[C@@H]1Cc2cc3c(cc2[C@@H](c2ccc(NC4CN(CCCF)C4)cc2)N1CC(F)(F)F)OCO3
2. C[C@@H]1Cc2cc3c(cc2[C@@H](c2ncc(N[C@H]4CCN(CCCF)C4)cc2F)N1CC(F)(F)CO)OCO3

Outgoing:
1. 0.27
2. 0.35

For each listed entry, give its IC50.
1. C[C@@H]1Cc2cc3c(cc2[C@@H](c2ccc(N[C@H]4CCN(CCCF)C4)cc2)N1CC(F)(F)F)OCO3
2. C[C@@H]1Cc2cc3c(cc2[C@@H](c2ncc(N[C@H]4CCN(CCCF)C4)cc2F)N1CC(F)(F)F)OCO3
3. C[C@@H]1Cc2cc3c(cc2[C@@H](c2c(F)cc(N[C@H]4CCN(CCCF)C4)cc2F)N1CC(F)(F)F)OCO3
4. C[C@@H]1Cc2cc3c(cc2[C@@H](c2c(F)cc(N[C@H]4CCN(CCCF)C4)cc2F)N1CC(F)(F)CO)OCO3
5. C[C@@H]1Cc2cc3c(cc2[C@@H](c2ccc(NC4CN(CCCF)C4)cn2)N1CC(F)(F)CO)OCO3
6. C[C@@H]1Cc2cc3c(cc2[C@@H](c2ccc(NC4CN(CCCF)C4)cc2)N1CC(F)(F)CO)OCO3

Outgoing:
1: 0.14; 2: 0.46; 3: 0.1; 4: 0.05; 5: 0.5; 6: 0.07

# batch: return IC50 for each of the 4 compounds below
1. C[C@@H]1Cc2cc3c(cc2[C@@H](c2ccc(N[C@H]4CCN(CCCF)C4)cc2)N1CC(F)(F)CO)OCO3
2. C[C@@H]1Cc2cc3c(cc2[C@@H](c2ccc(N[C@H]4CCN(CCCF)C4)cn2)N1CC(F)(F)CO)OCO3
3. [2H]C1([2H])Oc2cc3c(cc2O1)[C@@H](c1ccc(N[C@H]2CCN(CCCF)C2)cc1)N(CC(F)(F)CO)[C@H](C)C3
4. C[C@@H]1Cc2cc3c(cc2[C@@H](c2ccc(N[C@H]4CCN(CCCF)C4)cn2)N1CC(F)(F)F)OCO3

Outgoing:
0.44
0.37
0.07
0.27
